Source listed as patent US20240343761A1.

Assignment: determine reported Ki for the given molecules.
- SYSTEM UNDER TEST: human APJ (hAPJ) (Homo sapiens, UniProt P35414)
- Construct: expressed in transfected cells; cell membranes
- Sequence (P35414 1-380): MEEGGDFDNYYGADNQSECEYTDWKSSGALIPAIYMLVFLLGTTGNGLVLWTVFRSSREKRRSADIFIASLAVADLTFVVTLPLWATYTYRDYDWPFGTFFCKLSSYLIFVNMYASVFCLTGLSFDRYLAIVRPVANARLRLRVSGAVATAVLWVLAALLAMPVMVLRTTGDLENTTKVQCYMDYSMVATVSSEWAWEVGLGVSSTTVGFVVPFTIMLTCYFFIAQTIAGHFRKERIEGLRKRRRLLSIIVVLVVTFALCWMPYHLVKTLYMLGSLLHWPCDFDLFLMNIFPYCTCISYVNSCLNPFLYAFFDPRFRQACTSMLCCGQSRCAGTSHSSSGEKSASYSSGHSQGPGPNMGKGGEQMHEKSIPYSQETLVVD
- ASSAY SUMMARY: Competitive radioligand binding ([125I][Nle75,Tyr77][Pyr1]-Ape13) on membranes of HEK293 cells stably expressing human APJ
- CONDITION LABEL: Ki binding
Bridge positions count the residues as written; N and C are the ends. Square brackets hold non-standard residues; d marks the D form. Peptide text beside a SMILES is read from it. * marks the point of attachment. AllylGly = C=CC[C@H](N)C(=O)O; pGlu = O=C1CC[C@@H](C(=O)O)N1; Nle = CCCC[C@H](N)C(=O)O; Bn = c1ccc(C*)cc1

Exercise: Reported Ki for N=C(N)NCCC[C@H](N)C(=O)N[C@H]1CCCCNC(=O)CC[C@@H](C(=O)N[C@@H](Cc2ccc(OCc3ccccc3)cc2)C(=O)O)NC(=O)[C@@H]2CCCN2C1=O [Compound 58, NH2-R-c[K-P-E]-Tyr(Obn)] (H-RKPEY(Bn)-OH; lactam 2-4) : what is it?
Key: > 10 µM

Exercise: Reported Ki for CCCC[C@H](NC(=O)[C@@H]1CCCN1C(=O)CNC(=O)[C@H](CCCCN)NC(=O)[C@H](Cc1c[nH]cn1)NC(=O)[C@H](CO)NC(=O)[C@@H]1CC=CC[C@H](NC(=O)[C@@H]2CCC(=O)N2)C(=O)N2CCC[C@H]2C(=O)N[C@@H](CCCNC(=N)N)C(=O)N1)C(=O)N1CCC[C@H]1C(=O)N[C@@H](Cc1ccccc1)C(=O)O [Compound 3, Pyr-c[X-P-R-X]c-S-H-K-G-P-Nle-P-F] ([pGlu][AllylGly]PR[AllylGly]SHKGP[Nle]PF-OH; staple 2-5) : what is it?
Key: 1.25 µM

Exercise: Reported Ki for CC(C)C[C@@H]1NC(=O)[C@H](CCCNC(=N)N)NC(=O)[C@@H](N)CC=CC[C@@H](C(=O)N[C@@H](CCCCN)C(=O)O)NC(=O)[C@H](CO)NC1=O [Compound 30, NH2-c[X-R-L-S-X]c-K] (H-[AllylGly]RLS[AllylGly]K-OH; staple 1-5) : what is it?
Key: > 10 µM

Exercise: Reported Ki for CCCC[C@H](NC(=O)[C@@H]1CCCN1C(=O)CNC(=O)[C@H](CCCCN)NC(=O)[C@@H]1CC=CC[C@H](NC(=O)[C@@H]2CCC(=O)N2)C(=O)N2CCC[C@H]2C(=O)N[C@@H](CCCNC(=N)N)C(=O)N[C@@H](CC(C)C)C(=O)N[C@@H](CO)C(=O)N1)C(=O)N1CCC[C@H]1C(=O)N[C@@H](Cc1ccccc1)C(=O)O [Compound 4, Pyr-c[X-P-R-L-S-X]c-K-G-P-Nle-P-F] ([pGlu][AllylGly]PRLS[AllylGly]KGP[Nle]PF-OH; staple 2-7) : what is it?
Key: 0.148 µM

Exercise: Reported Ki for CC(C)C[C@@H]1NC(=O)[C@H](CCCNC(=N)N)NC(=O)[C@@H](N)CC=CC[C@@H](C(=O)N[C@@H](CCCCN)C(=O)NCC(=O)N2CCC[C@H]2C(=O)N[C@@H](C)C(=O)O)NC(=O)[C@H](CO)NC1=O [Compound 34, NH2-c[X-R-L-S-X]c-K-G-P-Ala] (H-[AllylGly]RLS[AllylGly]KGPA-OH; staple 1-5) : what is it?
Key: > 10 µM

Exercise: Reported Ki for CCCC[C@H](NC(=O)[C@@H]1CCCN1C(=O)CNC(=O)[C@@H]1CC=CC[C@H](NC(=O)[C@@H]2CCC(=O)N2)C(=O)N2CCC[C@H]2C(=O)N[C@@H](C)C(=O)N[C@@H](CC(C)C)C(=O)N[C@@H](CO)C(=O)N[C@@H](Cc2c[nH]cn2)C(=O)N1)C(=O)N1CCC[C@H]1C(=O)N[C@@H](Cc1ccccc1)C(=O)O [Compound 8, Pyr-c[X-P-A-L-S-H-X]c-G-P-Nle-P-F] ([pGlu][AllylGly]PALSH[AllylGly]GP[Nle]PF-OH; staple 2-8) : what is it?
Key: > 10 µM

Exercise: Reported Ki for CCCC[C@H](NC(=O)[C@@H]1CCCN1C(=O)CNC(=O)[C@H](CCCCN)NC(=O)[C@@H]1CC=CC[C@H](NC(=O)[C@@H]2CCC(=O)N2)C(=O)N2CCC[C@H]2C(=O)N[C@@H](C)C(=O)N[C@@H](CC(C)C)C(=O)N[C@@H](CO)C(=O)N1)C(=O)N1CCC[C@H]1C(=O)N[C@@H](Cc1ccccc1)C(=O)O [Compound 7, Pyr-c[X-P-A-L-S-X]c-K-G-P-Nle-P-F] ([pGlu][AllylGly]PALS[AllylGly]KGP[Nle]PF-OH; staple 2-7) : what is it?
Key: > 10 µM

Exercise: Reported Ki for CCCC[C@H](NC(=O)[C@@H]1CCCN1C(=O)CNC(=O)[C@H](CCCCN)NC(=O)[C@H](Cc1c[nH]cn1)NC(=O)[C@H](CO)NC(=O)[C@@H]1CC=CC[C@H](NC(=O)[C@@H]2CCC(=O)N2)C(=O)N2CCC[C@H]2C(=O)N[C@@H](C)C(=O)N1)C(=O)N1CCC[C@H]1C(=O)N[C@@H](Cc1ccccc1)C(=O)O [Compound 5, Pyr-c[X-P-A-X]c-S-H-K-G-P-Nle-P-F] ([pGlu][AllylGly]PA[AllylGly]SHKGP[Nle]PF-OH; staple 2-5) : what is it?
Key: > 10 µM
